# assay-explanation: folding enthalpy; higher = less favourable; fluorescence melt of hairpins on a sequencing array, two-state fit
# measurement-conditions: sodium 0.088 M
recorded-metric: folding enthalpy

1. GATCGGCTCTCCGATC ((((((....)))))) :: -47.3 kcal/mol
2. GAACCCCCGAAAGGGTTC (((..(((....)))))) :: -24 kcal/mol
3. GATCATCTAAATGATC ((((((....)))))) :: -35.9 kcal/mol
4. GATCTAGAGTAGATC ((((((...)))))) :: -28.1 kcal/mol
5. GATCTTAAACAAGATC ((((((....)))))) :: -24.9 kcal/mol
6. GATCGAGGAAACTCGACC (.(((((....))))).) :: -14.8 kcal/mol
7. GCTGAGCGAAAGCTGAGC (((.(((....))).))) :: -40.4 kcal/mol
8. GGTCTTGGAAACAAGGTC (..((((....))))..) :: -12 kcal/mol
9. GGAGTTGGAAACAATTCC (((.(((....))).))) :: -29.6 kcal/mol
10. GTTCCCGAAAGGGGTAAC ((((((....)))..))) :: -12.2 kcal/mol
11. GAATTACGAAAGTAGTTC (((.(((....))).))) :: -31.5 kcal/mol
12. GATCATCGGTATGATC ((((((....)))))) :: -34.2 kcal/mol
13. GCTCAGCGAAAGCCGTGC ((.(.((....)).).)) :: -12.3 kcal/mol
14. GATCAGTCACTGATC ((((((...)))))) :: -39.9 kcal/mol
15. GCTTAGCGAAAGCCTAGC (((..((....))..))) :: -15.6 kcal/mol
16. GTCGACGAAAGTCCTGAC ((((((....)))..))) :: -12.9 kcal/mol
17. GATCCGTGCCGGATC ((((((...)))))) :: -44.5 kcal/mol
18. GCTCGCGGAAACGTGAGC ((((.((....)).)))) :: -37.6 kcal/mol
19. GATCTAACGATAGATC ((((((....)))))) :: -29.4 kcal/mol
20. GCGGCCGAAAGGCCTCGC ((((((....)))..))) :: -12.5 kcal/mol
21. GCACACCGAAAGGTTTGC (((.(((....))).))) :: -40.7 kcal/mol
22. GGGCGCACGAAAGTGCCC (((..(((....)))))) :: -12.1 kcal/mol
23. GCCTTCGAAAGAAGAGGC ((((((....)))..))) :: -23.4 kcal/mol
24. GACACAGGAAACTGTGTC (((((((....))))))) :: -47.9 kcal/mol
25. GCAACCGAAAGGTATGC ((((((....))).))) :: -26.4 kcal/mol
26. GATATGCCGAAAGGCATC (((..(((....)))))) :: -7.19 kcal/mol
27. GAGCGCGAAAGCGGGCTC ((((((....)))..))) :: -16.2 kcal/mol
28. GATCTTAATTAAGATC ((((((....)))))) :: -32.1 kcal/mol
29. GATTGCGAAAGCATAATC ((((((....)))..))) :: -12.8 kcal/mol
30. GACTCGACGAAAGTCGTC (((..(((....)))))) :: -8.01 kcal/mol
31. CGGTTCGGAAACGACCCG (((.(((....))).))) :: -33 kcal/mol
32. GAAGGCGAAAGCCCTTC ((((((....))).))) :: -15.3 kcal/mol
33. GCGGATCGAAAGATCGC (((.(((....)))))) :: -25.6 kcal/mol
34. GTGGTCGAAAGACTGCAC ((((((....)))..))) :: -14.7 kcal/mol
35. GCATACGGAAACGCATGC ((((.((....)).)))) :: -34.5 kcal/mol
36. GTCTACGAAAGTATGAC ((((((....))).))) :: -23.8 kcal/mol
37. GTATTTCGAAAGAAGTAC (((.(((....))).))) :: -34.3 kcal/mol
38. GTCAGTGGAAACACTGAC (((((((....))))))) :: -47.6 kcal/mol
39. GATCCTGCGTAGGATC ((((((....)))))) :: -44.2 kcal/mol
40. CGCCCGGAAACGGCAGCG ((((((....)))..))) :: -30.7 kcal/mol
41. GATCTCGTTGGAGATC ((((((....)))))) :: -42.3 kcal/mol
42. GCGCAGGGAAACTTGCGC (((((.(....).))))) :: -43.4 kcal/mol
43. GGATTGGGAAACTGATCC ((((..(....)..)))) :: -28.1 kcal/mol
44. GATCATAACAATGATC ((((((....)))))) :: -32.1 kcal/mol
45. GCGTATAGACGC ((((....)))) :: -24.6 kcal/mol
46. GACGTGGGAAACCACGCC (.(((((....))))).) :: -14 kcal/mol
47. GGCCGCGAAAGCGATGCC ((((((....)))..))) :: -25.2 kcal/mol
48. GCAGCGCGAAAGCGGCGC ((..(((....)))..)) :: -21.6 kcal/mol
49. CGGGAACGGAAACGTCCG (((..(((....)))))) :: -22.2 kcal/mol
50. GCGTTCTACGC ((((...)))) :: -22.5 kcal/mol

====

# assay-explanation: folding enthalpy; higher = less favourable; fluorescence melt of hairpins on a sequencing array, two-state fit
# measurement-conditions: sodium 0.088 M
recorded-metric: folding enthalpy (kcal/mol)

1. GTGAACGAAAGTTCTCAC ((((((....)))..))) :: -14.3
2. GCGACCGAAAGGTTTCGC ((((((....)))..))) :: -24.1
3. GCGTATCGAAAGATCCGC (((.(((....))).))) :: -38.1
4. GATCCCTTAGGGATC ((((((...)))))) :: -38.3
5. GTTCGAGGAAACTCGAGC (.(((((....))))).) :: -21.7
6. GCAATCGAAAGATGCTGC ((((((....)))..))) :: -28.2
7. GGGATTGAAAAATCCC ((((((....)))))) :: -43.6
8. GCCAAGGGAAACCTTAGC ((.((((....)))).)) :: -19.3
9. GATCTGGGAAACCAGACC (.(((((....))))).) :: -16.1
10. GATCCCATAGGGGATC ((((((....)))))) :: -32.9
11. GGTTACCGAAAGGTTACC (((.(((....))).))) :: -30.3
12. GGTATCGGAAACGGTATC (.((.((....)).)).) :: -26.1
13. GGATTACGAAAGTATCC (((.(((....)))))) :: -22.2
14. GAGTCCGAAAGGAATCTC ((((((....)))..))) :: -18.8
15. GAGTGCGAAAGCAACCTC ((((((....)))..))) :: -13.5
16. GCCGCCGAAAGGCGCGGC ((((((....)))..))) :: -11.2
17. GCGAAATTTCGC ((((....)))) :: -42.6
18. GGGCGTGGAAACACACCC (((.(((....))).))) :: -40.7
19. GCTCGCGAAAGCGTTAGC ((((((....)))..))) :: -14.1
20. GCGCAGGGAAACCCACGC (((..((....))..))) :: -26.7
21. GTTATGCGAAAGCACAAC (((.(((....))).))) :: -20.3
22. GTCGAACCGAAAGGTGAC (((..(((....)))))) :: -18
23. GTGTGGGGAAACTCACAC (((((.(....).))))) :: -36.3
24. GCTGGCCGAAAGGCAAGC (((.(((....))).))) :: -25.5
25. GATCCCGGTCGGGATC ((((((....)))))) :: -35.5
26. GCAGCAGGAAACTACTGC ((((.((....)).)))) :: -30.5
27. GTCGTGCGAAAGCAAGAC (((.(((....))).))) :: -34.7
28. GGGGCTACGAAAGTACCC (((..(((....)))))) :: -22.1
29. GCTGCCGAAAGGCATAGC ((((((....)))..))) :: -15
30. GCGAGACATCGC ((((....)))) :: -8
31. GCATCAGGAAACTGATAC (.(((((....))))).) :: -18.7
32. GCCCCGCGAAAGCGGAGC ((.((((....)))).)) :: -22
33. GTGACGGAAACGTCAC ((((((....)))))) :: -32.9
34. GGGTAAGGAAACTTATCC ((.((((....)))).)) :: -29.2
35. GCGATCGAAAGATTCCGC ((((((....)))..))) :: -23.8
36. GTTAATGAAAATTAAC ((((((....)))))) :: -25.9
37. CCCTAGAAATAGGG (((((....))))) :: -20.7
38. GATCAGAGTCTGATC ((((((...)))))) :: -39.1
39. GACCGGGGAAACTCGGTC (((((.(....).))))) :: -50.3
40. GCGAAGCGAAAGCCTCGC ((((.((....)).)))) :: -18.5
41. GACCTTGGAAACAGGGTC ((((.((....)).)))) :: -31.5
42. GCCGTCGAAAGACGCGGC ((((((....)))..))) :: -15
43. GCGCCCGGAAACAGGCGC (((((.(....).))))) :: -31.7
44. GATCAGATTCCTGATC ((((((....)))))) :: -39
45. GCGATACATCGC ((((....)))) :: -27.5
46. GATCGTGGACACGATC ((((((....)))))) :: -40.2
47. GTGTCAGGAAACTGATGC (..((((....))))..) :: -21.1
48. GAGGCGGGAAACCGCCCC (.(((((....))))).) :: -7.11
49. GCCCAGCCGAAAGGCGGC (((..(((....)))))) :: -10.6
50. GCTACAGCGAAAGCTAGC (((..(((....)))))) :: -16.3

Hello, the source for this data is the array DNA melting data of Ke et al. (doi:10.1101/2024.01.08.574731), in case you need it.
